experimental-target: T1, Fc Receptor-like 5 (FcRL5), full length, overexpressed on 3T3 or Raji cells (human, UniProt Q96RD9 16-977)
T1 construct: also called 3T3-FcRL5
T1 sequence: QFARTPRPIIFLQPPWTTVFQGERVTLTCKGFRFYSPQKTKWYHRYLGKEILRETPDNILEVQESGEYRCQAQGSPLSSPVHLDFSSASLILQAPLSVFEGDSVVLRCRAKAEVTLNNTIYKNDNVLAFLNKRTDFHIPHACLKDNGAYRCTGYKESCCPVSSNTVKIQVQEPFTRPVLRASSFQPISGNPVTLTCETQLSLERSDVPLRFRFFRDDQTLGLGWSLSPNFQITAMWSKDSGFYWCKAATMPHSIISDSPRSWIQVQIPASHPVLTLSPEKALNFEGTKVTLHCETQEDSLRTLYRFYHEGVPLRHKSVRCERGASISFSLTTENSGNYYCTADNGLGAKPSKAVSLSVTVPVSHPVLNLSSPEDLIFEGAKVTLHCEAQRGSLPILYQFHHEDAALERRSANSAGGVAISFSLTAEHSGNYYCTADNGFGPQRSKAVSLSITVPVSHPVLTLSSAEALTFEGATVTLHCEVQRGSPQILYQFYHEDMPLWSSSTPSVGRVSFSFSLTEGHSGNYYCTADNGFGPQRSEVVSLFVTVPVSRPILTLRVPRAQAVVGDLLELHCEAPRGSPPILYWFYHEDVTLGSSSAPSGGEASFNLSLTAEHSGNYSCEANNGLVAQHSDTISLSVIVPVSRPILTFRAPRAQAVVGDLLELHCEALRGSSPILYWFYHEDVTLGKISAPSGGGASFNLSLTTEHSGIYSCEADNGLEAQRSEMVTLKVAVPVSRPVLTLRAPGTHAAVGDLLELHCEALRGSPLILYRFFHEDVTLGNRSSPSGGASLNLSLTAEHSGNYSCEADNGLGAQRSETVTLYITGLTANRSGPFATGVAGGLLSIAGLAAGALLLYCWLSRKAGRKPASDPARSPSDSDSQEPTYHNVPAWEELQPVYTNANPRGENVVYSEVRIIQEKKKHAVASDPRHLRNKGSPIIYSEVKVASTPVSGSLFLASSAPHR
assay-name: phage clone screening on cells
assay-readout: binding result

Exercise: Data request, read-out binding result, for ET200-030 (scFv, screened as phage clone; entry is VL-linker-VH-His tag-HA tag) scFv: QSVVTQPPSVSGAPGQRVTISCTGSSSNIGAGYDVNWYQQFPGTAPKLLIYGNSNRPSGVPDRFSGSKSGTSASLAITGLQAEDEADYYCQSYDSSLSGSYVFGTGTKVTVLGSRGGGGSGGGGSGGGGSLEMAQMQLVQSGAEVKKPGASVKVSCKASGYTLTELSMHWVRQAPGKGLEWMGGFDPEDGETIYAQKFQGRVTMTEDTSTDTAYMELSSLRSEDTAVYYCARMSSMYYDWGQGTLVTVSSTSGQAGQHHHHHHGAYPYDVPDYAS
Solution: binds
